Hello, the source for this data is patent US20260083851A1, in case you need it.

Recorded pKd, one value per entry.
Molecular target: ASGP receptor (biotinylated ASGPR) (Homo sapiens, UniProt P07306)
Construct: biotin (biotinylated)
Sequence (P07306 whole entry): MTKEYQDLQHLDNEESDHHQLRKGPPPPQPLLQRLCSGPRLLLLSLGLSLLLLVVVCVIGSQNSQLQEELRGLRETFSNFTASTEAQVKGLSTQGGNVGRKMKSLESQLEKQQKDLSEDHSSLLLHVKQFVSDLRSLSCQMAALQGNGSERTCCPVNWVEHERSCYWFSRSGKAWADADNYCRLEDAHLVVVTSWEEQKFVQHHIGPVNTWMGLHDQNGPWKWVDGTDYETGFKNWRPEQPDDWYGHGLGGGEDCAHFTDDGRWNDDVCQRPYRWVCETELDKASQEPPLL
Format: binding
Details: SPR, Biacore 8K, 25° C.; Table 1C; read-out: ASGPR KD
pKd: −log10 of the molar value.

Some molecules with known pKd results, for comparison:
Entry under test: `O[C@@H]1[C@H](O)[C@@H](Oc2cccc(C(F)(F)F)n2)CO[C@@H]1COc1ccc(Br)c(F)c1` . Its pKd was > 5.00

Entry under test: `O[C@@H]1[C@H](O)[C@@H](Nc2cncc(C(F)(F)F)n2)CO[C@@H]1c1cn(-c2ccccc2)nn1` . Its pKd was > 5.00

Entry under test: `O[C@@H]1[C@H](O)[C@@H](Oc2cccc(C(F)(F)F)n2)CO[C@@H]1COc1ccncc1` . Its pKd was > 5.00

Entry under test: O[C@@H]1[C@@H](Oc2cccc(C(F)(F)F)n2)COC(C(F)(F)c2ccc(Cl)cc2)[C@@H]1O (stereo partly shown) . Its pKd was > 5.00

Entry under test: `[O-][n+]1c(O[C@H]2CO[C@H](CSc3ccccc3)[C@H](O)[C@@H]2O)cccc1C(F)(F)F` . Its pKd was > 5.00

Turning now to a further record.
Entry under test: `OCc1cnc(OC[C@H]2OC[C@H](Nc3cncc(C(F)(F)F)n3)[C@@H](O)[C@H]2O)nc1` . Its pKd was > 5.00
